# testSystem: truncated human PLK1 (kinase domain) (Homo sapiens)
# Construct: made in house; host or cells: baculovirus-infected T. ni insect cells
# Sequence (P53350 21-346): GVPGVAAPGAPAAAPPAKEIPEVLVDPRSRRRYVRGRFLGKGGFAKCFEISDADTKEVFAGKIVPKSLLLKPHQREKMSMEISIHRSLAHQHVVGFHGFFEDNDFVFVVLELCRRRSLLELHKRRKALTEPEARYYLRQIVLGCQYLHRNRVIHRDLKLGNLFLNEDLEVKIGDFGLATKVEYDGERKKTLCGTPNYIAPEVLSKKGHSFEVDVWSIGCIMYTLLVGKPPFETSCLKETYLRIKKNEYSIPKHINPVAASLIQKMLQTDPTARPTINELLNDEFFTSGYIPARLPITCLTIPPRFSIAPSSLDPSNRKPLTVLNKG
# assayName: Assay for Inhibition of PLK1 (33P SPA enzyme activity)
# Format: biochemical
# measurementSetup: 1 μM ATP, 2 nM enzyme; read-out: Ave pIC50 PLK Enzyme Inhibition (converted)
# Experimental: I. Assay for Inhibition of PLK1 A. Preparation of 6× N-Terminal His-Tagged PLK Kinase Domain All procedures are performed at 4° C. Cells are lysed in 25 mM HEPES, 200 mM NaCl, 25 mM imidazole; pH 8.0. The homogenate is centrifuged at 14K rpm in a SLA-1500 rotor for 40 min and the supernatant filtered through a 1.2 micron filter. […] Fractions containing PLK are determined by SDS-PAGE. […] B. Enzyme Activity±Inhibitors is Determined As Follows: […]
quantityName: IC50

compound	testSystem	reportedResult
COc1cc(Nc2ncc3c(C)nc(-c4ccccc4NC(=O)C(F)(F)F)n3n2)cc(OC)c1OC [Example 7]	truncated human PLK1 (kinase domain) (Homo sapiens)	0.1 to 10 µM
COc1cc(Nc2ncc3c(C)nc(-c4cccc(Nc5ccc(-n6ccnc6)cc5)c4)n3n2)cc(OC)c1OC [Example 65]	truncated human PLK1 (kinase domain) (Homo sapiens)	> 10 µM
COc1cc(Nc2ncc3c(C)nc(-c4cccc(Nc5ccc(Cn6cncn6)cc5)c4)n3n2)cc(OC)c1OC [Example 64]	truncated human PLK1 (kinase domain) (Homo sapiens)	0.1 to 10 µM
Cc1nc(-c2cccc(C(F)(F)F)c2)n2nc(Nc3ccc(OCCN4CCCC4)cc3)ncc12 [Example 50]	truncated human PLK1 (kinase domain) (Homo sapiens)	0.1 to 10 µM
COc1cc(Nc2ncc3c(C)nc(-c4cccc(C(N)=O)c4)n3n2)cc(OC)c1OC [Example 16]	truncated human PLK1 (kinase domain) (Homo sapiens)	0.1 to 10 µM
COc1ccc(Nc2ncc3c(C)nc(CC4CCCCC4)n3n2)cc1 [Example 91]	truncated human PLK1 (kinase domain) (Homo sapiens)	0.1 to 10 µM
COc1ccc(Nc2ncc3c(C)nc(-c4ccccc4)n3n2)cc1OC [Example 92]	truncated human PLK1 (kinase domain) (Homo sapiens)	0.1 to 10 µM
COc1cc(Nc2ncc3c(C)nc(-c4ccccc4[N+](=O)[O-])n3n2)cc(OC)c1OC [Example 2]	truncated human PLK1 (kinase domain) (Homo sapiens)	0.1 to 10 µM
COc1ccc(Nc2ncc3c(C)nc(-c4cc5ccccc5n4C)n3n2)cc1 [Example 78]	truncated human PLK1 (kinase domain) (Homo sapiens)	> 10 µM
COc1cc(Nc2ncc3c(C)nc(-c4cn(C)c5ccccc45)n3n2)cc(OC)c1OC [Example 35]	truncated human PLK1 (kinase domain) (Homo sapiens)	0.1 to 10 µM
